# maps each entry to its Inhibition
- STUDY SYSTEM: Cholesterol side-chain cleavage enzyme, mitochondrial (Bos taurus)
- Sequence (P00189 whole entry): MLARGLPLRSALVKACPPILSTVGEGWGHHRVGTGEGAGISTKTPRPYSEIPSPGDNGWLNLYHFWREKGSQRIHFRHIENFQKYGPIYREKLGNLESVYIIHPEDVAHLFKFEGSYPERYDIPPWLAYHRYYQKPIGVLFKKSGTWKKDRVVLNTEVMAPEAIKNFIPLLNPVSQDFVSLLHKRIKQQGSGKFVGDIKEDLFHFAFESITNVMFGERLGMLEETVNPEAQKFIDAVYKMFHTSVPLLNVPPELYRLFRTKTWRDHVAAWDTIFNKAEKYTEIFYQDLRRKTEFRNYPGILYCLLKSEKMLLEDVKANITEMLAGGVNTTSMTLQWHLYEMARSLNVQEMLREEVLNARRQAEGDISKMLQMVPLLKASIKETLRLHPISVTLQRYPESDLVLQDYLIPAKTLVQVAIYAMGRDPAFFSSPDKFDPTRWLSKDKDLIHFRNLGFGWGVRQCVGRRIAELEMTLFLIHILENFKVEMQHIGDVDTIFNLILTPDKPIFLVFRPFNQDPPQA
- PROTOCOL DETAILS: Inhibition of bovine cholesterol side-chain cleavage desmolase, cytochrome P450 11A1
- Set-up: concentration or dose not given beside the values
- PARTICULARS: cattle
TEST READOUT: Inhibition (%)

COMPOUND | EXPERIMENTAL VALUE
CCC1(c2ccc(NC=O)cc2)CCC(=O)NC1=O (stereo unspecified) | 12
CCC1(c2ccc(N)cc2)CCC(=O)N(N)C1=O (stereo unspecified) | 50
CCC1(c2ccc(N)cc2)CC(N)C(=O)NC1=O (stereo unspecified) | 45
CCC1(c2ccc(O)c(N)c2)CCC(=O)NC1=O (stereo unspecified) | 35
CCC1(c2ccc(N)cc2)CCC(=O)NC1=O (stereo unspecified) [AMINOGLUTETHIMIDE] | 85
CCC1(c2ccc([N+](=O)[O-])cc2)CCC(=O)NC1=O (stereo unspecified) [4-NITROGLUTETHIMIDE] | 20
